FYI, the data here is from ChEMBL document CHEMBL5620397.

As a worked illustration, we turn to pIC50 data collected for UniProt A0A045ISB3.
Sequence (A0A045ISB3 whole entry): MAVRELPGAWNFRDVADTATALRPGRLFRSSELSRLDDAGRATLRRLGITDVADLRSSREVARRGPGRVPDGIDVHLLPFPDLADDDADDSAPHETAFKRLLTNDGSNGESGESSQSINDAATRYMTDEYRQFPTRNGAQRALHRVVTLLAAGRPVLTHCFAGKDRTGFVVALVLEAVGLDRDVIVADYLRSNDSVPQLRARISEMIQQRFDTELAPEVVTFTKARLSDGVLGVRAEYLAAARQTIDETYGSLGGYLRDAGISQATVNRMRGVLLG
One number for each entry, as −log10 of the molar value.

INSERT INTO measurements (compound, readout, readout_value) VALUES
  ('CCOC(=O)C1=C(C)Oc2nc(C)n(Cc3cn([C@@H]4O[C@H](COC(C)=O)[C@@H](OC(C)=O)[C@H](OC(C)=O)[C@H]4OC(C)=O)nn3)c(=O)c2C1c1cc(OC)c(OC)c(OC)c1 (stereo partly drawn)', 'pIC50', 5.81),
  ('Cc1onc(C(=O)O)c1-c1cccc(-c2cc(Cl)c(O)c(Cl)c2)c1', 'pIC50', 5.53);

Proceed to the following item.
Lab book: pIC50 of O=C1OC(c2ccccc2C(F)(F)F)C(c2ccc3ccccc3n2)=C1O (stereo not drawn) noted as 4.51
